system: Yap1 mRNA; assay: Antisense inhibition of human Yap1 in A-431 cells by cEt gapmers, single dose (Example 4, RTS4814); assay type: cell-based; conditions: Yap1 mRNA remaining as percent of untreated control; 3-10-3 cEt gapmers; A-431 cells; Table 37
Strand notation (5' to 3'): a small letter for the sugar, then the base; units joined by * are phosphorothioate-linked, units joined directly phosphodiester-linked; [ ] holds rarer units or linkages, { } end groups; capitals alone tell only the bases. k = constrained ethyl (cEt); [5mC] = 5-methylcytosine; d = 2'-deoxy (DNA)
assayReadout: YAP1 (% UTC)
Enter your answer as a number in % UTC; do not include the unit.

[ask] Reported YAP1 (% UTC), substance 1075287 (antisense kT*kA*kT*dT*dA*d[5mC]*dG*dG*dA*d[5mC]*dA*dG*dA*kA*kG*kT) [compound 1075287] : ____
[reply] 58

[ask] Need YAP1 (% UTC) of 1075863 (antisense k[5mC]*k[5mC]*kT*dA*dA*dT*dA*dA*d[5mC]*dT*dT*dG*dT*k[5mC]*kT*kA) [compound 1075863] , thanks.
[reply] 71

[ask] Consider the substance shown here: 1074679 (antisense kT*k[5mC]*kT*dT*dA*dA*dT*d[5mC]*dT*dG*dT*dG*dG*k[5mC]*kT*kA) [compound 1074679] What is its recorded YAP1 (% UTC)?
[reply] 5

[ask] What does the data say about its YAP1 (% UTC)? Entry: 1074295 (antisense kT*kG*kG*dT*dT*dG*dG*dA*dG*dT*dT*dG*d[5mC]*kT*kG*k[5mC]) [compound 1074295]
[reply] 15

[ask] So what does the record say about YAP1 (% UTC) for 1076343 (antisense kA*kG*kA*d[5mC]*dT*dA*dA*dA*dT*d[5mC]*dT*dT*d[5mC]*k[5mC]*k[5mC]*kT) [compound 1076343] ?
[reply] 8

Continuing:
[ask] Which YAP1 (% UTC) is reported for this substance? 1074967 (antisense kG*kA*k[5mC]*dA*dA*dA*dT*dT*dG*dA*dA*dG*dT*kG*kT*kT) [compound 1074967]
[reply] 116
